- method: solubility of hydrochloride crystal forms
- Format: physicochemical
- settings: MC/T, aqueous with cosolvent or surfactant or cyclodextrin
readout-kind: solubility

Identify measured solubility associated with COc1ccc(-c2cc(NC(=O)CCCCN3CCCN(C(C)=O)CC3)n[nH]2)cc1.Cl [Form III]
> 100 mg/mL

----------
- tested-target: α7 nicotinic acetylcholine receptor (Rattus norvegicus)
- Sequence (Q05941 23-502): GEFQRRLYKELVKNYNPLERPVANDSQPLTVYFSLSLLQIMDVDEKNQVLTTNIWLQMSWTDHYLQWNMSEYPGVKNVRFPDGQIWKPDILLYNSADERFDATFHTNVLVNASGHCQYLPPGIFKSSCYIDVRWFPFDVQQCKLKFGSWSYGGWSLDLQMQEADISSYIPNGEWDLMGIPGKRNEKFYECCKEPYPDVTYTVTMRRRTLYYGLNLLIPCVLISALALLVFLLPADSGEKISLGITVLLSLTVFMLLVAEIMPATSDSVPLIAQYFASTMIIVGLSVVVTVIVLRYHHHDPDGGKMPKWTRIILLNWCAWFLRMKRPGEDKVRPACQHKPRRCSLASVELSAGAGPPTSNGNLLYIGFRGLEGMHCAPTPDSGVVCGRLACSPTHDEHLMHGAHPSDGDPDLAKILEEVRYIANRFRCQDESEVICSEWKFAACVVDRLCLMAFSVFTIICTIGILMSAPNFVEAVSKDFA
- method: functional FLIPR assay, α7 nAChR stably expressed in GH4C1 cells
- settings: GH4C1 cells stably transfected with rat α7 nAChR; agonist concentration range 0.001 to 30 microM
readout-kind: EC50

Identify measured EC50 associated with `C[N+]1(C)CCN(c2ccccc2)CC1`
980 nM
